# measurement.notes: gradient 5% acetonitrile 3 min, to 50% in 2 min, to 85% in 15 min, held 3 min, 100 µL/min
# measurement.parameters: column: Zorbax Extend-C18 2.1 x 50 mm; eluents: water / acetonitrile, 0.1% formic acid
Note to self: class labels come from recorded RP-LC retention time, ranges listed here: bin 0: < 700 s; bin 1: ≥ 700 s and < 900 s; bin 2: ≥ 900 s

Examples from the recorded data:
>  <molecule>
CCc1onc(C)c1C1CCCN1C(=O)c1ccc(C)cc1 (stereo not given)

>  <class>
bin 1

$$$$
>  <molecule>
N#Cc1cccc(C(=O)N2CCCn3nc(-c4ccc(Cl)cc4)cc3C2)c1

>  <class>
bin 2

$$$$
>  <molecule>
c1ccc(OCc2nc(-c3ccc4c(c3)ncn4CCN3CCCCC3)no2)cc1

>  <class>
bin 0

$$$$
>  <molecule>
CCn1nccc1-c1cccc(-c2noc(-c3cccc(OC)c3OC)n2)c1

>  <class>
bin 2

$$$$
>  <molecule>
Cc1ccc(-c2nc(Cn3nnc(C(=O)NCc4ccc(C)o4)c3C)c(C)o2)cc1

>  <class>
bin 2

$$$$
>  <molecule>
O=C(Nc1ccccc1)c1nnc(CCCC(=O)N2CCN(c3ccccn3)CC2)s1

>  <class>
bin 0

$$$$
>  <molecule>
O=S(=O)(c1ccc(Br)cc1)N1CCc2nc(-c3ccc(F)cc3)ncc2C1

>  <class>
bin 2

$$$$
>  <molecule>
CCOc1nccnc1N1CCC(NC(=O)Cc2cccnc2)C1 (stereo not given)

>  <class>
bin 0

$$$$
>  <molecule>
Cn1c(=O)n(C)c2cc(S(=O)(=O)NCc3ccco3)ccc21

>  <class>
bin 0

$$$$
>  <molecule>
COc1ccc(Nc2c(-c3ccc(SC)cc3)nc3cnccn23)cc1OC

>  <class>
bin 1

$$$$

Q) Into which category would you place `CCOc1ccc(CC(=O)N2CCCn3nc(-c4ccc(Cl)cc4)cc3C2)cc1` ?
A) bin 2

Q) Which bin, given its RP-LC retention time, does `CCn1cc(CN2CCC(C(=O)NC3CCCCCC3)CC2)c2cc(Cl)ccc21` occupy?
A) bin 1
